System: OVCAR3 human ovarian cancer cell line
assay_remarks: Cytotoxic activity of dimers against OVCAR3 cells
Assay type: cell-based
test_parameters: Homo sapiens, OVCAR-3; Table 5 comparative activities; OVCAR3
metric_name: EC50

compound="COc1cc2c(cc1OCCCOc1cc3c(cc1OC)C(=O)N1CCC[C@H]1C=N3)N=C[C@@H]1CCCN1C2=O [Dimer A-4, reference compound]" metric_name=EC50 result="56 nM"

----------
System: N87 human gastric cancer cell line
assay_remarks: Cytotoxic activity of dimers against N87 cells
Format: cell-based
test_parameters: Table 5 comparative activities; N87
# EC50 listing for each entry below
metric_name: EC50

smiles_notation=O=C1c2cc3c(cc2N=C[C@@H]2CCCN12)OCCCCCOc1cc2c(cc1OCCCCCCCCCCCCO3)C(=O)N1CCC[C@H]1C=N2 result="15 nM"
smiles_notation=O=C1c2cc3c(cc2N=C[C@@H]2CCCN12)OCCCOc1cc2c(cc1OCCCCCCCO3)C(=O)N1CCC[C@H]1C=N2 result="4.6 nM"
smiles_notation=O=C1c2cc3c(cc2N=C[C@@H]2CCCN12)OCCCOc1cc2c(cc1OCCCC/C=C/CCCCO3)C(=O)N1CCC[C@H]1C=N2 result="13 nM"
smiles_notation=O=C1c2cc3c(cc2N=C[C@@H]2CCCN12)OCCCOc1cc2c(cc1OCCCCCCCCCCO3)C(=O)N1CCC[C@H]1C=N2 result="22 nM"
smiles_notation=O=C1c2cc3c(cc2N=C[C@@H]2CCCN12)OCCCCCOc1cc2c(cc1OCCCCCCCCCCCO3)C(=O)N1CCC[C@H]1C=N2 result="87 nM"
smiles_notation=O=C1c2cc3c(cc2N=C[C@@H]2CCCN12)OCCCOc1cc2c(cc1OCCCCCCCCCO3)C(=O)N1CCC[C@H]1C=N2 result="8.3 nM"
smiles_notation=O=C1c2cc3c(cc2N=C[C@@H]2CCCN12)OCCCOc1cc2c(cc1OCCCCCCCCCCCO3)C(=O)N1CCC[C@H]1C=N2 result="150 nM"
smiles_notation=O=C1c2cc3c(cc2N=C[C@@H]2CCCN12)OCCCOc1cc2c(cc1OCCCCCCCCCCCCO3)C(=O)N1CCC[C@H]1C=N2 result="310 nM"
smiles_notation=O=C1c2cc3c(cc2N=C[C@@H]2CCCN12)OCCCOc1cc2c(cc1OCCCCCCCCO3)C(=O)N1CCC[C@H]1C=N2 result="2.7 nM"

----------
Tested on: H226 human lung cancer cell line
assay_remarks: Cytotoxic activity of dimers against H226 cells
Format: cell-based
test_parameters: Homo sapiens, NCI-H226; Table 5 comparative activities; H226
Source text: H226 is a human lung cancer cell line. N87 is a human gastric cancer cell line. OVCAR3 is a human ovarian cancer cell line. HCT116 is a human colon cancer cell line. HCT116/VM46 is a human colon cancer cell line that is multi-drug and paclitaxel resistant.
metric_name: EC50 (nM)

compound="COc1cc2c(cc1OCCCOc1cc3c(cc1OC)C(=O)N1CCC[C@H]1C=N3)N=C[C@@H]1CCCN1C2=O [Dimer A-4, reference compound]" tgt="H226 human lung cancer cell line" metric_name=EC50 result=70

----------
Test system: OVCAR3 human ovarian cancer cell line
assay_remarks: Cytotoxic activity of dimers against OVCAR3 cells
Assay type: cell-based
test_parameters: Table 5 comparative activities; OVCAR3
Excerpt: H226 is a human lung cancer cell line. N87 is a human gastric cancer cell line. OVCAR3 is a human ovarian cancer cell line. HCT116 is a human colon cancer cell line. HCT116/VM46 is a human colon cancer cell line that is multi-drug and paclitaxel resistant.
Listed below: log10 of EC50 values for each entry.
metric_name: log10 of EC50 (log10 of the value in nM)

smiles_notation=O=C1c2cc3c(cc2N=C[C@@H]2CCCN12)OCCCOc1cc2c(cc1OCCCCCCCO3)C(=O)N1CCC[C@H]1C=N2 result=0.53
smiles_notation=O=C1c2cc3c(cc2N=C[C@@H]2CCCN12)OCCCOc1cc2c(cc1OCCCCCCCCCCCCO3)C(=O)N1CCC[C@H]1C=N2 result=2.15
smiles_notation=O=C1c2cc3c(cc2N=C[C@@H]2CCCN12)OCCCOc1cc2c(cc1OCCCCCCCCO3)C(=O)N1CCC[C@H]1C=N2 result=0.08
smiles_notation=O=C1c2cc3c(cc2N=C[C@@H]2CCCN12)OCCCCCOc1cc2c(cc1OCCCCCCCCCCCO3)C(=O)N1CCC[C@H]1C=N2 result=1.15
smiles_notation=O=C1c2cc3c(cc2N=C[C@@H]2CCCN12)OCCCOc1cc2c(cc1OCCCCCCCCCCCO3)C(=O)N1CCC[C@H]1C=N2 result=1.89
smiles_notation=O=C1c2cc3c(cc2N=C[C@@H]2CCCN12)OCCCOc1cc2c(cc1OCCCC/C=C/CCCCO3)C(=O)N1CCC[C@H]1C=N2 result=1.08
smiles_notation=O=C1c2cc3c(cc2N=C[C@@H]2CCCN12)OCCCOc1cc2c(cc1OCCCCCCCCCO3)C(=O)N1CCC[C@H]1C=N2 result=0.86
smiles_notation=O=C1c2cc3c(cc2N=C[C@@H]2CCCN12)OCCCOc1cc2c(cc1OCCCCCCCCCCO3)C(=O)N1CCC[C@H]1C=N2 result=1.30
smiles_notation=O=C1c2cc3c(cc2N=C[C@@H]2CCCN12)OCCCCCOc1cc2c(cc1OCCCCCCCCCCCCO3)C(=O)N1CCC[C@H]1C=N2 result=1.00
